system: HPAF-II cells; assay: HPAF-II Cell Proliferation Assay; format: cell-based; details: Homo sapiens, HPAF-II, HPAF-II cells; Table 2; read-out: Inhibition of cell proliferation in HPAF-II (IC50 class)
Here, each record is paired with measured IC50 data.

Some solved entries appear below for comparison.
Cc1ccc(NC(=O)c2cc(C(F)(F)F)cnn2)cc1-c1ccnc(-c2ccnc(NCCO)c2)c1: < 100 nM
Cc1cc(-c2cc(NC(=O)c3cncc(C(C)(F)F)c3)ccc2C)cc(-c2ccnc(NC(=O)C3CC3)c2)n1: 1000 to 10000 nM
Cc1ccc(NC(=O)c2cc(C(F)(F)F)cnn2)cc1-c1ccnc(-c2cncn2C)c1: 100 to 500 nM
Cc1ccc(NC(=O)c2cc(P(C)(C)=O)cnn2)cc1-c1ccnc(-c2ccnc(NC(=O)C3CC3)c2)c1: 1000 to 10000 nM
CNCC(=O)Nc1cc(-c2cc(-c3cc(NC(=O)c4cc(C(F)(F)F)cnn4)ccc3C)ccn2)ccn1: 100 to 500 nM
Cc1ccc(NC(=O)c2cc(C(F)(F)F)cnn2)cc1-c1ccnc(-c2ccnc(NC(=O)C3(C)CCC3)c2)c1: 100 to 500 nM

Lab note: next compound to report on.
Output IC50 of "Cc1ccc(NC(=O)c2cc(C(F)(F)F)cnn2)cc1-c1cc(N[C@H](C)CO)nc(-c2cn[nH]c2C)c1"
100 to 500 nM
